// note: IC50 values for Cyclin-dependent kinase 2 (Homo sapiens, UniProt P24941) were reported in different studies
measure_name: IC50 (nM)

P: O=C(Nc1ccc(N2CC3CC2CN3)cc1)c1n[nH]cc1Nc1ncnc2[nH]ccc12 (centres unmarked)
Q: Cc1cc(C)c2c(c1)C(=NNC(=O)c1cc3cc(Br)ccc3o1)C(=O)N2
R: CC(NC(=O)c1cccc(C(=O)NC(C)C(=O)N/N=C2/C(=O)Nc3ccccc32)c1)C(=O)N/N=C1\C(=O)Nc2ccccc21 (centres unmarked)
Asked: Which order do these items take when sorted by rising IC50? List them. # format: label list in the order the request specifies
Given back: P, Q, R
(P: 9.64 nM, Q: 105 nM, R: 6240 nM)
